Task for the reader: assign each of the following binders its reported koff.
# system: T1, soluble E2-his6-sortase tag from HCV isolate AMS.2b.20876551.kloon21 (genotype 2b) (Hepatitis C virus genotype 2b)
# T1 chain: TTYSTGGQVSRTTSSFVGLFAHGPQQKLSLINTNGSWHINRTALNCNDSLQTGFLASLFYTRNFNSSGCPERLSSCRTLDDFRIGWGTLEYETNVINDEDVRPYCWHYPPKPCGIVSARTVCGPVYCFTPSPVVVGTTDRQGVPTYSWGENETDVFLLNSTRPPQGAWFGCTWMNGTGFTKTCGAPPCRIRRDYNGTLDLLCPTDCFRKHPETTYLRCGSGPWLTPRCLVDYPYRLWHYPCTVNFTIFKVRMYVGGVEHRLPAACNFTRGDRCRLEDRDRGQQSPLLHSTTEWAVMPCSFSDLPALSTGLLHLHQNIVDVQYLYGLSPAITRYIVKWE
# measurement_notes: SPR (IBIS MX96), antibody spotted on chip, soluble E2-his as analyte
Form entry: enter the amount, then its unit.

Incoming: Which koff value is on record for AT12-007 (antibody, V domains shown) VH: QVQLEQSGAEVKKPGASVKVSCKVSGYTLTELSMHWVRQAPGKGLEWMGSFDPADGERLYAQKFQGRVIMSEDTSTDTAYMELSSLRSEDAAVYYCATAPRMTMFGVIMALDSWGQGTLVTVSS VL: DIQMTQSPSTLSASLGDRVTITCRASQNINKYLAWYQQKPGKAPKLLIYKASNLQSGVPSRFSGSGSGTDFILTISSLQPDDFATYYCQQYTTYSAWTFGQGTNVDIKR ?
Outgoing: 0.00019 s⁻¹

Incoming: Which koff value is on record for AT12-010 (antibody, V domains shown) VH: QLQLVQSGAEVKKPGSSVKVSCKASGGTFTSYAINWVRQVPGQGLEWMGEISPVFGTTHYAQKFQGRLKITADESADTAYMELSSLRSDDTAVYYCGRDRAPRLCSGGRCHSPPDHWGQGTLVTVSS VL: DIQMTQSPSSVSASVGDRVTITCRASQGFGNWLAWYQQKPGRAPKLLIFGASTLQNGVPSRFSGSASGTDFTLTITSLQPEDFATYYCLQTNTFPYTFGQGTKVEIKR ?
Outgoing: 0.00098 s⁻¹

Incoming: Which koff value is on record for AT13-021 (antibody, V domains shown) VH: QVQLVQSGAEVKKPGSSVKVSCKASGGTFNTHAFSWVRQAPGEGLEWMGGISPMSGTPNYAQKFQGRLTITADESTSTGYMELRSLTSEDTAVYYCARELIGYCTGGNCYSFGDFWGQGTLITVSS VL: EIVMTQSPATLSVSPGERATLSCRASQSVSSHLAWYQHKPGQAPRLLISGASTRAVGVPARFSGSGSGTEFTLTISSLQSEDFAVYYCHQYNTWPRGFGQGTKVDFKR ?
Outgoing: 0.0001 s⁻¹

Incoming: Which koff value is on record for AT12-009 (antibody, V domains shown) VH: SSVRVSCKASGDTFKTHAISWVRQAPGQGLEWVGGTVRQAPGDGLELLGGFVPILAPANDAQKFQGRVTITADGSTGPVYMDLSTLTSEDTAMYYCVTSLSEPIPRSCRGGRCYSGPFDAFGVWGQGTMVTVSS VL: ETMLTQSPVTLSVSPGERATLSCRASQSIGTNLAWYQQKPGQAPRLLIHGASTRATGVPVSFSGSGSGTEFTLTISSLQSEDFAVYYCQQYNNWPLTFGGGTKVDFKR ?
Outgoing: 0.0002 s⁻¹

src = patent US20170313764A1
